Data origin, for the record: the supplement of paper PMC10567573

B1: HSP90AB1 (parent)
chain: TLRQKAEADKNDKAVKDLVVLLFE

# Variants of: B1
# METHOD: protein stability index of a GFP-peptide fusion (GPS, HEK-293T) (PSI 1-6); higher = more stable;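 further: lentivirally expressed fusions sorted by FACS into six bins by GFP to DsRed ratio, PSI derived from sequencing read proportions per bin multiplied by bin number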
# ASSAY SETUP: c terminus: a fixed tail appended
Reported protein stability index values are given for each entry in this list.

TLRQKAEADFNDKAVKDLVVLLFE [K10F] ... 2.53
TLRQKAEADHNDKAVKDLVVLLFE [K10H] ... 2.69

So, TLRQKAEADKNDKAVKDLWVLLFE [V19W] ? Its protein stability index was 2.7

Value of protein stability index reported for the variant TFRQKAEADKNDKAVKDLVVLLFE [L2F] is 2.65

protein stability index reported for this variant TLRQKAEADKNDKAVKWLVVLLFE [D17W] : 2.62

Notebook: TLRAKAEADKNDKAVKDLVVLLFE [Q4A] , protein stability index read as 2.63

The measured protein stability index associated with TLRQKAEADKNDKAVKDLVVLLQE [F23Q] reads 4.55

Lookup result for TLRQKFEADKNDKAVKDLVVLLFE [A6F] ; measured protein stability index: 2.74

protein stability index reported for this variant TLRQKAEADKNDKAVKDLVVLLFC [E24C] : 1.43

Measured protein stability index, TLRQKAEADKNNKAVKDLVVLLFE [D12N] : 2.62

response.value for RLRQKAEADKNDKAVKDLVVLLFE [T1R] (field: protein stability index) = 2.47

The recorded protein stability index for TLRQKAEASKNDKAVKDLVVLLFE [D9S] is 2.92

Reported protein stability index for TLRKKAEADKNDKAVKDLVVLLFE [Q4K] was 3.26

For record LLRQKAEADKNDKAVKDLVVLLFE [T1L] the listed protein stability index is 2.3

# protein stability index of TLRQKAEADKNDKAVKDLVVLLFY [E24Y] = 2.21

Field protein stability index (entry TLKQKAEADKNDKAVKDLVVLLFE [R3K] ) reads 3.36

The recorded protein stability index for entry TLRQKAEADKNDKAVKDLVVLDFE [L22D] equals 4.86
